- Tested on: Stellaria
- procedure.text: Post-emergent herbicidal action (contact herbicide)
- Assay type: in vivo
- Set-up: key: 1=complete damage; 9=no action; Ratings of 1 to 4 (in particular 1 to 3) mean a good to very good herbicidal action
- measurement.conditions: 2000 g of active substance/ha, sprayed in the 4- to 6-leaf stage, evaluated after about 18 days, ratings scale 1-9
- Experimental: Monocotyledon and dicotyledon test plants are grown in plastic pots with standard soil in a greenhouse and, in the 4- to 6-leaf stage, are sprayed with an aqueous suspension of the test substances of the formula 1, prepared from a 25% wettable power (Example F3, b)), corresponding to a dosage of 2000 g of active substance/ha (500 l of water/ha). […] After a test period of about 18 days, the test is evaluated with a ratings scale of 9 levels (1=complete damage, 9=no action). […]
Please provide measured Post-emergent action, rating, Stellaria for the entries that follow.
Provide a numeric answer; units are not to be included.

// query Post-emergent action, rating, Stellaria value for entry CC1CN(S2=NC(N)=NC(Oc3c(F)c(F)c(F)c(F)c3F)=N2)CCC(C)(C)C1 (single isomer, unassigned) [6.93] 1

Post-emergent action, rating, Stellaria for NC1=NS(N2CCc3ccccc3C2)=NC(Oc2c(F)c(F)c(F)c(F)c2F)=N1 (centres unmarked) ? 3

Any idea what Post-emergent action, rating, Stellaria was measured for CC1CN(S2=NC(N)=NC(Oc3c(F)c(F)c(F)c(F)c3F)=N2)C2CCCCC12 (centres unmarked) ? 3

What value of measured Post-emergent action, rating, Stellaria is listed for CC1CC(OS2=NC(N)=NC(Oc3c(F)c(F)c(F)c(F)c3F)=N2)CC(C)(C)C1 (centres unmarked) ? 3

Form field: reported Post-emergent action, rating, Stellaria of C[Si](C)(C)COS1=NC(N)=NC(Oc2c(F)c(F)c(F)c(F)c2F)=N1 (centres unmarked) 2

Which Post-emergent action, rating, Stellaria is listed for CC1CN(S2=NC(N)=NC(Oc3c(F)c(F)c(F)c(F)c3F)=N2)CCC(C)(C)C1 (single isomer, unassigned) [6.92] ? 1

Need Post-emergent action, rating, Stellaria of CN(C1CCCCC1)S1=NC(N)=NC(Oc2c(F)c(F)c(F)c(F)c2F)=N1 (centres unmarked) , thanks. 3

For CC1CC2CCCCC2N(S2=NC(N)=NC(Oc3c(F)c(F)c(F)c(F)c3F)=N2)C1 (centres unmarked) , what is its reported Post-emergent action, rating, Stellaria? 3
